Here we list compounds with their recorded pIC50 when tested on TEC (Homo sapiens, UniProt P42680).
One number for each entry, as −log10 of the molar value.

Consider the worked cases shown below.
mol	pIC50
C[C@H]1CC[C@@H](Nc2n[nH]c3nccc(-c4ccc(CNC(=O)c5noc(C(C)(C)C)n5)c(F)c4)c23)CN1C(=O)N1CCOCC1	6.33
CCC(=O)N1CC(Nc2n[nH]c3nccc(-c4ccc(CNC(=O)c5noc(C(C)(C)C)n5)c(F)c4)c23)C1	5.88
C=CC(=O)N1CC[C@@H](Nc2n[nH]c3nccc(-c4ccnc(N5CCn6c(cc7c6CC(C)(C)C7)C5=O)c4CO)c23)C1	5.48

Can you give me pIC50 for all of these, one by one?
1. C[C@H]1CC[C@@H](Nc2n[nH]c3nccc(-c4ccc(CNC(=O)c5ccc(C(C)(C)O)cc5F)c(F)c4)c23)CN1C(=O)N(C)C
2. C=CC(=O)N1CC[C@@H](Nc2n[nH]c3nccc(-c4ccc(CNC(=O)c5nc(C(C)(C)C)n[nH]5)c(F)c4)c23)C1
3. C[C@@H]1[C@H](Nc2n[nH]c3nccc(-c4ccc(CNC(=O)c5noc(C(C)(C)C)n5)c(F)c4)c23)CCCN1CC#N

Data returned:
5.98
6.45
5.38

====

Target sequence: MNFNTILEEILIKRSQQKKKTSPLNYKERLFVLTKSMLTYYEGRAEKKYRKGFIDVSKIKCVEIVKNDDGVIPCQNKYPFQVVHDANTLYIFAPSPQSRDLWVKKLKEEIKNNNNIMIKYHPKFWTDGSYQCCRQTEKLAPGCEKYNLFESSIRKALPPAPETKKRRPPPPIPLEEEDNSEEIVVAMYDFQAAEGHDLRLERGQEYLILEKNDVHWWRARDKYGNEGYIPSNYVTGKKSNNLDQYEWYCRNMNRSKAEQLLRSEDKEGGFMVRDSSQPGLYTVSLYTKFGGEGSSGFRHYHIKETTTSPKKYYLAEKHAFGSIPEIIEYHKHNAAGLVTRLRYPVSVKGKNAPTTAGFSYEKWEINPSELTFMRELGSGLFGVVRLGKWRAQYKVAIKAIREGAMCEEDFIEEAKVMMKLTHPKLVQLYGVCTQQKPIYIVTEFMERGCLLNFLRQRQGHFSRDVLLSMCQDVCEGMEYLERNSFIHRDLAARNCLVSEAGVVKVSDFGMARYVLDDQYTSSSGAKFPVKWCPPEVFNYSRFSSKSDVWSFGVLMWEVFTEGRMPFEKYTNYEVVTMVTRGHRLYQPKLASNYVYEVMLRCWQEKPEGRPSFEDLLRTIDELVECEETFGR
I'd appreciate it if you could supply pIC50 values for the items below.
Answers are plain numbers, as −log10 of the molar value.

Consider the worked cases shown below.
mol	pIC50
CN(C)C(=O)N1CC[C@@H](Nc2n[nH]c3nccc(-c4ccc(CNC(=O)c5nc(C(C)(C)C)no5)c(F)c4)c23)C1	5.15
C=CC(=O)N1CC[C@@H](Nc2n[nH]c3nccc(-c4ccc(CNC(=O)c5cnc(N(C)C)o5)c(F)c4)c23)C1	7.00
CC#CC(=O)N1CC[C@@H](Nc2n[nH]c3nccc(-c4ccc(CNC(=O)c5cc(C(C)(C)C)on5)c(F)c4)c23)C1	6.97
CN(C)C(=O)N1CC[C@@H](Nc2n[nH]c3nccc(-c4ccc(CNC(=O)c5cc(C(C)(C)C)on5)c(F)c4)c23)C1	5.20
CC#CC(=O)N1CC(Nc2n[nH]c3nccc(-c4ccc(CNC(=O)c5noc(C(C)(C)C)n5)c(F)c4)c23)C1	6.97

Data request: Which value of pIC50 has been reported for C=CC(=O)N1CC[C@@H](Nc2n[nH]c3nccc(-c4ccc(CNC(=O)c5ccc6c(c5)OCCCO6)c(F)c4)c23)C1 in the records?
Data returned: 6.47

====

- subject_of_test: Btk (Homo sapiens, UniProt Q06187)
- Construct: purified from insect cells as a full-length construct containing a N-terminal 6X-His tag; His6 (N); made in house; host or cells: insect cells (Method C)
- Sequence (Q06187 whole entry): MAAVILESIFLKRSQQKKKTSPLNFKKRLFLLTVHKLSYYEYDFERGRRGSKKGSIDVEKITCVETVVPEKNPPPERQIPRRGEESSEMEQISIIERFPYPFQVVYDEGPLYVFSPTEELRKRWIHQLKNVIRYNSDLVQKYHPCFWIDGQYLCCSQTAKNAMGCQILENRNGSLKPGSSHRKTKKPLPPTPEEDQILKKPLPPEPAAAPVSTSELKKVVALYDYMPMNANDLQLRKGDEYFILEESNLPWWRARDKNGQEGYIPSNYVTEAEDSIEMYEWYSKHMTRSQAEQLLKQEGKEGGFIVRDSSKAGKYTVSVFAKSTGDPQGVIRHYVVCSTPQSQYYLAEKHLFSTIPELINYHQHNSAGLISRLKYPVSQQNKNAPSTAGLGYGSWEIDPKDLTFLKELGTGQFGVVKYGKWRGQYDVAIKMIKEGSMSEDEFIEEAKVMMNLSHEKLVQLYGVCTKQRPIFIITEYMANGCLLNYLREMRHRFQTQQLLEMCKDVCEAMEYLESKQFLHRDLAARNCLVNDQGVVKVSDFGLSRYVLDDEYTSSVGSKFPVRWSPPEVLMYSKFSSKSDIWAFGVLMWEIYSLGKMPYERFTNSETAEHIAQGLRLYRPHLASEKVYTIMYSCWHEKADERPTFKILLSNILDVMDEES
- experiment_description: Btk in vitro inhibitory activity (one of Method A TR-FRET, Method B electrophoretic mobility shift, Method C radiometric filter binding)
- Format: biochemical
- reported_conditions: wild-type Btk; read-out: Btk-WT IC50
I'd appreciate it if you could supply IC50 values for the items below.

Consider the worked cases shown below.
mol	measurement_name	reported_result
CC(C)(C)c1noc(C(=O)NCc2ccc(-c3ccnc4[nH]nc(N5CCC(NC(=O)C6CC6)CC5)c34)cc2F)n1	IC50	0.375 nM
C=CC(=O)N1CCC[C@@H](Nc2n[nH]c3nccc(-c4ccc(C5(NC(=O)c6noc(C(C)(C)C)n6)CC5)cc4)c23)C1	IC50	0.792 nM

Can you give me IC50 for all of these, one by one?
1. C=CC(=O)N1CC[C@@H](Oc2n[nH]c3nccc(-c4ccc(CNC(=O)c5noc(C(C)(C)C)n5)c(F)c4)c23)C1
2. C=CC(=O)N1CC[C@@H](Nc2n[nH]c3nccc(-c4ccc(CNC(=O)c5cccc(C(C)(C)C)c5)c(F)c4)c23)C1
3. C=CC(=O)N1CC[C@@H](Nc2n[nH]c3nccc(-c4cccc(-n5ccc6cc(C7CC7)cc(F)c6c5=O)c4CO)c23)C1
4. CC(C)(C)c1ccc(C(=O)NCc2ccc(-c3ccnc4[nH]nc(N[C@H]5CCNC5)c34)cc2F)cc1
5. CC(C)(C)c1ccc(C(=O)Nc2ccc(-c3ccnc4[nH]nc(N[C@@H]5CCNC5)c34)cc2F)cc1

Data returned:
0.0732 nM
8.55 nM
1.69 nM
53.9 nM
> 10000 nM

====

Here we list compounds with their recorded pIC50 when tested on panel of kinases (Homo sapiens).
Sequence (P51813 whole entry): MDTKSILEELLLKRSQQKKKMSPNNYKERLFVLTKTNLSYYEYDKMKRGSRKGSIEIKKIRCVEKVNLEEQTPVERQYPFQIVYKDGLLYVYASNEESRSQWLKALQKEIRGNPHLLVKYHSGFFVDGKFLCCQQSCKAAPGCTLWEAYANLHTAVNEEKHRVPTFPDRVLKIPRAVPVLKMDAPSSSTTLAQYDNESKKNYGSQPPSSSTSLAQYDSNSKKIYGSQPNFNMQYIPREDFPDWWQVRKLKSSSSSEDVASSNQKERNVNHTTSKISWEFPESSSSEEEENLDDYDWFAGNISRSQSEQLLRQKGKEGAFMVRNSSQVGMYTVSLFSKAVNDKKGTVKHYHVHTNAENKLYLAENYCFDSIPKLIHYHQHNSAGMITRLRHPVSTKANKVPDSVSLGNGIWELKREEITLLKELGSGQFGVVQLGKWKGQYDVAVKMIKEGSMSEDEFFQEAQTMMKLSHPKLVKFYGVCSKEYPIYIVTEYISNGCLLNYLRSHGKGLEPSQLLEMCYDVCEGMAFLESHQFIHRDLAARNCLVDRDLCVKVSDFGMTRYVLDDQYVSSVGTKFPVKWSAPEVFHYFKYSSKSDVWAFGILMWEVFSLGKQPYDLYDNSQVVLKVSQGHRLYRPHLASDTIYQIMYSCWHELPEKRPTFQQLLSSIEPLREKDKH
Numbers only, as −log10 of the molar value.

Can you give me pIC50 for all of these, one by one?
1. CN(C)C/C=C/C(=O)N1CC[C@@H](Nc2n[nH]c3nccc(-c4ccc(C5(NC(=O)c6noc(C(C)(C)C)n6)CC5)cc4)c23)C1
2. C=CC(=O)N1CC[C@@H](Nc2n[nH]c3nccc(-c4ccc(C(C)(C)NC(=O)c5noc(C(C)(C)C)n5)cc4)c23)C1
3. C[C@@H](NC(=O)c1noc(C(C)(C)C)n1)c1ccc(-c2ccnc3[nH]nc(C4=CCCN(C(=O)N(C)C)C4)c23)cc1

Data returned:
1. 6.23
2. 6.65
3. 5.04

Can you give me pIC50 for all of these, one by one?
1. CC(=O)N[C@@H]1CCN(c2n[nH]c3nccc(-c4ccc(CNC(=O)c5nc(C(C)C)no5)c(F)c4)c23)C1
2. CC(C)(C)c1ccc(C(=O)NCc2ccc(-c3ccnc4[nH]nc(NC5CCNC5)c34)cn2)cc1 (stereo not shown)
3. C[C@H]1CC[C@@H](Nc2n[nH]c3nccc(-c4ccc(CN5CCn6c(cc7c6CCCC7)C5=O)c(F)c4)c23)CN1C(=O)N(C)C
4. C=CC(=O)N1CC[C@@H](Nc2n[nH]c3nccc(-c4ccc(CNC(=O)c5noc(C(C)(C)C)n5)c(F)c4)c23)C1
5. C[C@@H](NC(=O)c1noc(C(C)(C)C)n1)c1ccc(-c2ccnc3[nH]nc(N[C@@H]4CC[C@H](C)N(C(=O)N(C)C)C4)c23)cc1F
6. C=CC(=O)N1CC[C@@H](Nc2n[nH]c3nccc(-c4ccnc(N5CCn6c(cc7c6CC(C)(C)C7)C5=O)c4CO)c23)C1
7. CC#CC(=O)N1CC(Nc2n[nH]c3nccc(-c4ccc(CNC(=O)c5noc(C(C)(C)C)n5)c(F)c4)c23)C1
8. CC(=O)N[C@@H]1CCN(c2n[nH]c3nccc(-c4ccc(CNC(=O)c5nc6c(o5)CCCC6)c(F)c4)c23)C1

Data returned:
1. 5.85
2. 5.52
3. 6.41
4. 7.41
5. 6.51
6. 5.10
7. 6.82
8. 5.50

====

- subject_of_test: UniProt:P42680
- experiment_description: Inhibition of a panel of kinases (in vitro HotSpot kinase assay, 33P-ATP, 1 μM ATP)
- Assay type: biochemical
- reported_conditions: ratio of TEC IC50 to Btk IC50 (selectivity)
Response field class: enum, chosen by comparing TEC/Btk against lower bin: < 20; middle bin: ≥ 20 and < 200; upper bin: ≥ 200

Consider the following illustrative entries.
molecule	subject_of_test	discrete_label
C=CC(=O)N1CC[C@@H](Nc2n[nH]c3nccc(-c4ccc([C@H](C)NC(=O)c5ccc(C(C)(C)C)cc5)cc4)c23)C1 [Example 97]	UniProt:P42680	lower bin
Cc1ccc(C(=O)NCc2ccc(-c3ccnc4[nH]nc(N[C@@H]5CCNC5)c34)cc2F)cc1 [Compound 32]	UniProt:P42680	lower bin
C=CC(=O)N[C@@H]1CCN(c2n[nH]c3nccc(-c4ccc(CNC(=O)c5ccc(C(C)(C)C)cc5)c(F)c4)c23)C1 [Example 101]	UniProt:P42680	upper bin
CC(=O)N1CCC(Nc2n[nH]c3nccc(-c4ccc([C@@H](C)NC(=O)c5cc(C(C)(C)O)on5)cc4)c23)CC1 [Example 204]	UniProt:P42680	upper bin

Data request: // return the class label for C=CC(=O)N1CC[C@@H](Nc2n[nH]c3nccc(-c4ccc(CNC(=O)c5nc(C(C)(C)C)n[nH]5)c(F)c4)c23)C1 [Example 82]
Data returned: lower bin

Data request: What would you report for CN(C)C(=O)N[C@@H]1CCN(c2n[nH]c3nccc(-c4ccc(CNC(=O)c5noc(C(C)(C)C)n5)c(F)c4)c23)C1 [Example 132] ?
Data returned: upper bin

Data request: What would you report for O=C(NCc1ccc(-c2ccnc3[nH]nc(N[C@@H]4CCNC4)c23)cc1F)c1ccc(C2CC2)cc1 [Compound 35] ?
Data returned: lower bin
